The origin of these recorded values is patent US9695155B2.

Can you tell me Plant response rating, Rice for the items I'm about to list?
System: rice
Test: Test B flooded paddy test
Format: in vivo, Oryza sativa
Details: Flood, 250 g ai/ha; 0 to 100 scale where 0 is no effect and 100 is complete control
Give bare numbers.

Completed entries (count: 5):
{"columns": ["COMPOUND", "Plant response rating, Rice"],
 "data": [
  ["N#Cc1cccc(Oc2ncc(F)cn2)c1-n1cc(Cl)cn1 [Compound 73]", 0],
  ["FC(F)(F)c1cnn(-c2c(Cl)cccc2Oc2ncc(Br)cn2)c1 [Compound 168]", 30],
  ["FC(F)(F)c1ccn(-c2ccccc2Sc2ncc(Cl)cn2)n1 [Compound 28]", 0],
  ["CCCOc1cnn(-c2c(C#N)cccc2Oc2ncc(Cl)cn2)c1 [Compound 150]", 0],
  ["Clc1cnc(Oc2ccccc2-n2cc(Cl)cn2)nc1 [Compound 3]", 0]
]}

Lab note: each compound below needs its Plant response rating, Rice filled in.
1. CC(C)Oc1cnn(-c2c(Br)cccc2Oc2ncc(Cl)cn2)c1 [Compound 148]
2. Fc1cnc(Oc2ccccc2-n2cc(OCC(F)(F)F)cn2)nc1 [Compound 241]
3. COc1cnn(-c2c(C#N)cccc2Oc2ncc(Cl)cn2)c1 [Compound 137]

Data returned:
0
0
0

Lab note: each compound below needs its Plant response rating, Rice filled in.
1. Cc1cc(C)n(-c2ccccc2Oc2ncc(Cl)cn2)n1 [Compound 264]
2. Cc1cnn(-c2ccccc2Oc2ncc(Cl)cn2)c1 [Compound 23]
3. N#Cc1cccc(Oc2ncc(Cl)cn2)c1-n1cc([N+](=O)[O-])cn1 [Compound 304]
4. O=Cc1cccc(Oc2ncc(Br)cn2)c1-n1cc(I)cn1 [Compound 183]
5. Cc1ccn(-c2ccccc2Oc2ncc(Cl)cn2)n1 [Compound 36]
6. CC(C)Oc1cnn(-c2c(C#N)cccc2Oc2ncc(F)cn2)c1 [Compound 158]
7. N#Cc1cccc(Oc2ncc(F)cn2)c1-n1cc(I)cn1 [Compound 86]

Data returned:
1. 0
2. 35
3. 0
4. 0
5. 0
6. 40
7. 0

Lab note: each compound below needs its Plant response rating, Rice filled in.
1. FCc1cccc(Oc2ncc(Br)cn2)c1-n1cc(C(F)(F)F)cn1 [Compound 120]
2. Cc1ccc(Oc2ncc(Cl)cn2)c(-n2cc(Br)cn2)c1 [Compound 40]
3. C#Cc1cnc(Oc2cccc(C#N)c2-n2cc(Br)cn2)nc1 [Compound 215]
4. N#Cc1cccc(Oc2ncc(Br)cn2)c1-n1cc(I)cn1 [Compound 88]
5. FC(F)(F)c1cnn(-c2ccccc2Oc2ncc(Cl)cn2)c1 [Compound 16]

Data returned:
1. 0
2. 15
3. 0
4. 0
5. 40

---

Tested on: winter wheat
Test: Test D postemergence
Assay type: in vivo, Triticum aestivum
Details: Triticum aestivum, post-emergence, 125 g ai/ha, scale 0 to 100 (0 no effect, 100 complete control), read-out: Plant response rating, Wheat, Winter
MEASURED PROPERTY: plant injury at 125 g/ha

Completed entries (count: 3):
{"columns": ["MOLECULE SMILES", "ASSAY TARGET", "plant injury at 125 g/ha"],
 "data": [
  ["FC(F)(F)c1cnn(-c2ccccc2Oc2ncc(Br)cn2)c1", "winter wheat", "15%"],
  ["Fc1cccc(Oc2ncc(Cl)cn2)c1-n1cc(Br)cn1", "winter wheat", "10%"],
  ["FC(F)(F)COc1cnn(-c2ccccc2Oc2ncc(Cl)cn2)c1", "winter wheat", "15%"]
]}

// below: plant injury at 125 g/ha requested for another molecule
Data request: Short answer please: plant injury at 125 g/ha, winter wheat, entry N#Cc1cccc(Oc2ncc(Cl)cn2)c1-n1cc(C(F)(F)F)cn1
Data returned: 25%
